Reference for the values: patent US8835481B2

quantity.name: melting point

### Prompt Give me measured melting point, please, for this compound: COc1ccc(Cn2nc(COC(C)(C)C(=O)O)c3ccccc32)cc1
### Response 169 to 171 °C

### Prompt Write down melting point measured for item CC(C)(OCc1nn(Cc2ccccc2)c2ccc(Cl)cc12)C(=O)O
### Response 145 to 147 °C

### Prompt Provide one value: measured melting point of COc1ccc2c(c1)c(COC(C)(C)C(=O)O)nn2Cc1ccccc1
### Response 128 to 130 °C

### Prompt Supply melting point value. Item: CC(C)(OCCOCc1nn(Cc2ccccc2)c2ccccc12)C(=O)O
### Response 94 to 95 °C

### Prompt Note down melting point recorded for CC(C)(OCc1nn(Cc2ccccc2)c2ccc(Br)cc12)C(=O)O
### Response 168 to 170 °C
